biological target: human GcgR (Homo sapiens, UniProt P47871); experiment: Functional cAMP activity in the presence of 1% HSA; format: cell-based
Sequence (P47871 26-477): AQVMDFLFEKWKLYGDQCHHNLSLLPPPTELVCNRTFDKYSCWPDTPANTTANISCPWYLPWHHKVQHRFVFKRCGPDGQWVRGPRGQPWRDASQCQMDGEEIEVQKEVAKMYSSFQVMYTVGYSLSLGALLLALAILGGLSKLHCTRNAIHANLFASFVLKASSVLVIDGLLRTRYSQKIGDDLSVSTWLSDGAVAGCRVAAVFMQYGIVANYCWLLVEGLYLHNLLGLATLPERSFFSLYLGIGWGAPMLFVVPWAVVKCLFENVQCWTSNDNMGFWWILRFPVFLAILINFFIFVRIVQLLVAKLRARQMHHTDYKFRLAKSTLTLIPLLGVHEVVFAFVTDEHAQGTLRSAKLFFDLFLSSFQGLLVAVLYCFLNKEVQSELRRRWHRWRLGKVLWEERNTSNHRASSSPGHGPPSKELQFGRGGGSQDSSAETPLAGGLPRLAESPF
Starred links: 1 amine or outer side, 2 acyl side, 3 side chain; linkers in the order of their positions; H or OH if unused. Non-standard residues stand in square brackets, D forms with d. Groups on a side chain read outwards from the residue. *: point of attachment. C20 diacid = O=C(O)CCCCCCCCCCCCCCCCCCC(=O)*; C18 diacid = O=C(O)CCCCCCCCCCCCCCCCC(=O)*; αMePhe(2-F) = C[C@](N)(Cc1ccccc1F)C(=O)O; γGlu = O=C(O)[C@H](CCC(=O)[*:2])N[*:1]; αMe4Pal = C[C@](N)(Cc1ccncc1)C(=O)O; αMeY = C[C@](N)(Cc1ccc(O)cc1)C(=O)O; 4Pal = N[C@@H](Cc1ccncc1)C(=O)O; αMeL = CC(C)C[C@](C)(N)C(=O)O; αMeS = C[C@](N)(CO)C(=O)O; Orn = NCCC[C@H](N)C(=O)O; AEEA = NCCOCCOCC(=O)O; Aib = CC(C)(N)C(=O)O
Parameter pEC50: see the listing below.
For clarity, pEC50 is expressed as the negative log10 of concentration in mol/L.

Worked set:
| substance | pEC50 |
| --- | --- |
| H-Y[Aib]QGTFTSDFSK[αMeL]LDKK([AEEA-γGlu-C20 diacid])AQQAFIEYLLA[Aib]GPSSGEPPPSEG-NH2 [Example 19] | 6.00 |
| H-Y[Aib]QGT[αMePhe(2-F)]TSD[4Pal][αMeS]I[αMeL]LD[Orn]K([γGlu-γGlu-C18 diacid])AQ[αMe4Pal]EFI[dE][αMeY]LIEGGPSSGAPPPEGTGE-NH2 [Example 764] | 6.84 |
| H-Y[Aib]QGTFTSDFSK[αMeL]LDKK([AEEA-γGlu-C20 diacid])AQQAFIEYLLA[Aib]GPSSGAPPPSEG-NH2 [Example 30] | 6.01 |

Here is the next item to consider.
Query H-Y[Aib]QGTFTSDFSK[αMeL]LDKK([AEEA-γGlu-C20 diacid])AQ[Aib]AFIEYLLE[Aib]GPSSGAPPPSSG-NH2 [Example 44] yields pEC50 of 5.98

###

target: human GLP1-R (Homo sapiens); experiment: GLP1-R internalization assay in HEK293 cells; assay type: cell-based; settings: HEK293 cells expressing SNAP-GLP-1R; read-out: GLP1R Internalization EC50
Sequence (P43220 24-463): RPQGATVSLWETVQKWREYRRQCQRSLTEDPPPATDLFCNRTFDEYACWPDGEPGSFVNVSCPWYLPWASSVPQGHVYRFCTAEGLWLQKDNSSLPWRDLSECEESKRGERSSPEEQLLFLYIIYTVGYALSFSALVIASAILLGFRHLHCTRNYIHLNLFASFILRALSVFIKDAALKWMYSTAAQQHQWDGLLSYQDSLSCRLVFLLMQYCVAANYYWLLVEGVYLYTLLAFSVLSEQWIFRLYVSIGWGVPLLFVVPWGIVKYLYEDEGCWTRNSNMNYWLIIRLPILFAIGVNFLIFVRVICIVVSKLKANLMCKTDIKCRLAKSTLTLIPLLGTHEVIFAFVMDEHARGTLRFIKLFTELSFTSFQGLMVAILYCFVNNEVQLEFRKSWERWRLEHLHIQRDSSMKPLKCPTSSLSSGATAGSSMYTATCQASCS
Starred links: 1 amine or outer side, 2 acyl side, 3 side chain; linkers in the order of their positions; H or OH if unused. Non-standard residues stand in square brackets, D forms with d. Groups on a side chain read outwards from the residue. *: point of attachment. C20 diacid = O=C(O)CCCCCCCCCCCCCCCCCCC(=O)*; C18 diacid = O=C(O)CCCCCCCCCCCCCCCCC(=O)*; Phe(4-CN) = N#Cc1ccc(C[C@H](N)C(=O)O)cc1; αMePhe(2-F) = C[C@](N)(Cc1ccccc1F)C(=O)O; γGlu = O=C(O)[C@H](CCC(=O)[*:2])N[*:1]; αMe4Pal = C[C@](N)(Cc1ccncc1)C(=O)O; 4Pal = N[C@@H](Cc1ccncc1)C(=O)O; αMeL = CC(C)C[C@](C)(N)C(=O)O; Orn = NCCC[C@H](N)C(=O)O; Dap = NC[C@H](N)C(=O)O; AEEA = NCCOCCOCC(=O)O; Aib = CC(C)(N)C(=O)O
EC50 under 50 nM gets 1, anything at or over 50 nM gets 0.

| substance | assigned-class |
| --- | --- |
| H-Y[Aib]QGTFTSDFSK[αMeL]LDKK([AEEA-γGlu-C20 diacid])AQ[Aib]AFIEYLLAGGPSSGAPPPGGE-NH2 [Example 15] | 0 |
| H-Y[Aib]QGTFTSDFS[Orn][αMeL]LDKK([AEEA-AEEA-γGlu-C18 diacid])AQ[Aib]AFIEYLLE[dA]GPSSGHPPPSGS-NH2 [Example 253] | 0 |
| H-Y[Aib]QGTFTSDFSK[αMeL]LDKK([AEEA-γGlu-C20 diacid])AQ[Aib]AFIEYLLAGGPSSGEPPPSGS-NH2 [Example 8] | 0 |

Prompt: Does the reported EC50 of the following substance sit strictly below 50 nM? H-Y[Aib]QGTFTSD[4Pal]S[Orn][αMeL]LDKK([AEEA-γGlu-C18 diacid])AQ[αMe4Pal]AFIEYLIE[Aib]GESSGAPPPSGS-NH2 [Example 223]
Completion: 1

Prompt: Does the reported EC50 of the following substance sit strictly below 50 nM? H-Y[Aib]QGT[αMePhe(2-F)]TSD[Phe(4-CN)]SILLDKQAQK([AEEA-AEEA-γGlu-C20 diacid])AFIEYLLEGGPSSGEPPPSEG-NH2 [Example 321]
Completion: 1

Prompt: Does the reported EC50 of the following substance sit strictly below 50 nM? H-Y[Aib]QGTFTSDYSI[αMeL]LDKK([AEEA-γGlu-C20 diacid])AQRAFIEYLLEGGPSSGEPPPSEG-NH2 [Example 289]
Completion: 1

Prompt: Does the reported EC50 of the following substance sit strictly below 50 nM? H-Y[Aib]QGTFTSDFS[Dap][αMeL]LDKK([AEEA-γGlu-C18 diacid])AQ[Aib]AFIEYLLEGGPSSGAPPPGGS-NH2 [Example 68]
Completion: 0

Prompt: Does the reported EC50 of the following substance sit strictly below 50 nM? H-Y[Aib]QGTFTSDFSK[αMeL]LDKK([AEEA-AEEA-γGlu-C20 diacid])AQ[Aib]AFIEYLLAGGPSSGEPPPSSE-NH2 [Example 5]
Completion: 0

Prompt: Does the reported EC50 of the following substance sit strictly below 50 nM? H-Y[Aib]QGTFTSDFSK[αMeL]LDKK([AEEA-γGlu-C20 diacid])AQ[Aib]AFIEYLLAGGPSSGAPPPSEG-NH2 [Example 10]
Completion: 0

Prompt: Does the reported EC50 of the following substance sit strictly below 50 nM? H-Y[Aib]QGTFTSDFSK[αMeL]LDKK([AEEA-γGlu-C18 diacid])AQ[Aib]AFIEYLLE[Aib]GPSSGEPPPSEG-NH2 [Example 46]
Completion: 1
